Known pKd of a selection of binders
- experimental_system: T1, AFP158/HLA-A*02:01 complex (human)
- T1 construct: flowed over the chip in SPR; also called AFP158 pro
- assay_protocol: SPR, scFv captured, pMHC in flow;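 also: complex injected at several concentrations over crude scFv, association then running-buffer dissociation, KD estimated from kinetic on- and off-rate constants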
pKd: −log10 of the molar value.
measured_parameter: pKd

binder: LD97A (scFv, AS170036 VL1VH1 scFv mutein) scFv: QSALTQPRSVSGSPGQSVTISCAGTSSDVGSENYVSWYQQHPGKAPKLMIYQVNKRASGVPDRFSGSKSGNTASLTISGLQAEDEADYYCASYRSSAHNIVFGGGTKLTVLGGGGSGGGGSGGGGSEVQLVESGGGLVQPGGSLRLSCAASGFTFSSYAMSWVRQAPGKGLEWVSTINSGTGSPYYADSVKGRFTISRDNSKNTLYLQMNSLRAEDTAVYYCAKNFFDGSWFLGPPAMDYWGQGTLVTVSSHHHHHH
measurement: 6.33

binder: LE32I (scFv, AS170036 VL1VH1 scFv mutein) scFv: QSALTQPRSVSGSPGQSVTISCAGTSSDVGSINYVSWYQQHPGKAPKLMIYQVNKRASGVPDRFSGSKSGNTASLTISGLQAEDEADYYCASYRSSDHNIVFGGGTKLTVLGGGGSGGGGSGGGGSEVQLVESGGGLVQPGGSLRLSCAASGFTFSSYAMSWVRQAPGKGLEWVSTINSGTGSPYYADSVKGRFTISRDNSKNTLYLQMNSLRAEDTAVYYCAKNFFDGSWFLGPPAMDYWGQGTLVTVSSHHHHHH
measurement: 6.07

binder: LY34E (scFv, AS170036 VL1VH1 scFv mutein) scFv: QSALTQPRSVSGSPGQSVTISCAGTSSDVGSENEVSWYQQHPGKAPKLMIYQVNKRASGVPDRFSGSKSGNTASLTISGLQAEDEADYYCASYRSSDHNIVFGGGTKLTVLGGGGSGGGGSGGGGSEVQLVESGGGLVQPGGSLRLSCAASGFTFSSYAMSWVRQAPGKGLEWVSTINSGTGSPYYADSVKGRFTISRDNSKNTLYLQMNSLRAEDTAVYYCAKNFFDGSWFLGPPAMDYWGQGTLVTVSSHHHHHH
measurement: 5.85

binder: LY93Q (scFv, AS170036 VL1VH1 scFv mutein) scFv: QSALTQPRSVSGSPGQSVTISCAGTSSDVGSENYVSWYQQHPGKAPKLMIYQVNKRASGVPDRFSGSKSGNTASLTISGLQAEDEADYYCASQRSSDHNIVFGGGTKLTVLGGGGSGGGGSGGGGSEVQLVESGGGLVQPGGSLRLSCAASGFTFSSYAMSWVRQAPGKGLEWVSTINSGTGSPYYADSVKGRFTISRDNSKNTLYLQMNSLRAEDTAVYYCAKNFFDGSWFLGPPAMDYWGQGTLVTVSSHHHHHH
measurement: 6.42

binder: LH98Y (scFv, AS170036 VL1VH1 scFv mutein) scFv: QSALTQPRSVSGSPGQSVTISCAGTSSDVGSENYVSWYQQHPGKAPKLMIYQVNKRASGVPDRFSGSKSGNTASLTISGLQAEDEADYYCASYRSSDYNIVFGGGTKLTVLGGGGSGGGGSGGGGSEVQLVESGGGLVQPGGSLRLSCAASGFTFSSYAMSWVRQAPGKGLEWVSTINSGTGSPYYADSVKGRFTISRDNSKNTLYLQMNSLRAEDTAVYYCAKNFFDGSWFLGPPAMDYWGQGTLVTVSSHHHHHH
measurement: 6.80

binder: LD97Y (scFv, AS170036 VL1VH1 scFv mutein) scFv: QSALTQPRSVSGSPGQSVTISCAGTSSDVGSENYVSWYQQHPGKAPKLMIYQVNKRASGVPDRFSGSKSGNTASLTISGLQAEDEADYYCASYRSSYHNIVFGGGTKLTVLGGGGSGGGGSGGGGSEVQLVESGGGLVQPGGSLRLSCAASGFTFSSYAMSWVRQAPGKGLEWVSTINSGTGSPYYADSVKGRFTISRDNSKNTLYLQMNSLRAEDTAVYYCAKNFFDGSWFLGPPAMDYWGQGTLVTVSSHHHHHH
measurement: 6.24

binder: LD97G (scFv, AS170036 VL1VH1 scFv mutein) scFv: QSALTQPRSVSGSPGQSVTISCAGTSSDVGSENYVSWYQQHPGKAPKLMIYQVNKRASGVPDRFSGSKSGNTASLTISGLQAEDEADYYCASYRSSGHNIVFGGGTKLTVLGGGGSGGGGSGGGGSEVQLVESGGGLVQPGGSLRLSCAASGFTFSSYAMSWVRQAPGKGLEWVSTINSGTGSPYYADSVKGRFTISRDNSKNTLYLQMNSLRAEDTAVYYCAKNFFDGSWFLGPPAMDYWGQGTLVTVSSHHHHHH
measurement: 6.51

binder: LY34L (scFv, AS170036 VL1VH1 scFv mutein) scFv: QSALTQPRSVSGSPGQSVTISCAGTSSDVGSENLVSWYQQHPGKAPKLMIYQVNKRASGVPDRFSGSKSGNTASLTISGLQAEDEADYYCASYRSSDHNIVFGGGTKLTVLGGGGSGGGGSGGGGSEVQLVESGGGLVQPGGSLRLSCAASGFTFSSYAMSWVRQAPGKGLEWVSTINSGTGSPYYADSVKGRFTISRDNSKNTLYLQMNSLRAEDTAVYYCAKNFFDGSWFLGPPAMDYWGQGTLVTVSSHHHHHH
measurement: 6.14

binder: LE32M (scFv, AS170036 VL1VH1 scFv mutein) scFv: QSALTQPRSVSGSPGQSVTISCAGTSSDVGSMNYVSWYQQHPGKAPKLMIYQVNKRASGVPDRFSGSKSGNTASLTISGLQAEDEADYYCASYRSSDHNIVFGGGTKLTVLGGGGSGGGGSGGGGSEVQLVESGGGLVQPGGSLRLSCAASGFTFSSYAMSWVRQAPGKGLEWVSTINSGTGSPYYADSVKGRFTISRDNSKNTLYLQMNSLRAEDTAVYYCAKNFFDGSWFLGPPAMDYWGQGTLVTVSSHHHHHH
measurement: 6.23

Measured values drawn from patent US20240279318A1 for this set.
